# assayedSystem: human KDR (VEGFR2) on cells (human, UniProt P35968 20-1356); further: test concentration or dose not given here
# Sequence (P35968 20-1356): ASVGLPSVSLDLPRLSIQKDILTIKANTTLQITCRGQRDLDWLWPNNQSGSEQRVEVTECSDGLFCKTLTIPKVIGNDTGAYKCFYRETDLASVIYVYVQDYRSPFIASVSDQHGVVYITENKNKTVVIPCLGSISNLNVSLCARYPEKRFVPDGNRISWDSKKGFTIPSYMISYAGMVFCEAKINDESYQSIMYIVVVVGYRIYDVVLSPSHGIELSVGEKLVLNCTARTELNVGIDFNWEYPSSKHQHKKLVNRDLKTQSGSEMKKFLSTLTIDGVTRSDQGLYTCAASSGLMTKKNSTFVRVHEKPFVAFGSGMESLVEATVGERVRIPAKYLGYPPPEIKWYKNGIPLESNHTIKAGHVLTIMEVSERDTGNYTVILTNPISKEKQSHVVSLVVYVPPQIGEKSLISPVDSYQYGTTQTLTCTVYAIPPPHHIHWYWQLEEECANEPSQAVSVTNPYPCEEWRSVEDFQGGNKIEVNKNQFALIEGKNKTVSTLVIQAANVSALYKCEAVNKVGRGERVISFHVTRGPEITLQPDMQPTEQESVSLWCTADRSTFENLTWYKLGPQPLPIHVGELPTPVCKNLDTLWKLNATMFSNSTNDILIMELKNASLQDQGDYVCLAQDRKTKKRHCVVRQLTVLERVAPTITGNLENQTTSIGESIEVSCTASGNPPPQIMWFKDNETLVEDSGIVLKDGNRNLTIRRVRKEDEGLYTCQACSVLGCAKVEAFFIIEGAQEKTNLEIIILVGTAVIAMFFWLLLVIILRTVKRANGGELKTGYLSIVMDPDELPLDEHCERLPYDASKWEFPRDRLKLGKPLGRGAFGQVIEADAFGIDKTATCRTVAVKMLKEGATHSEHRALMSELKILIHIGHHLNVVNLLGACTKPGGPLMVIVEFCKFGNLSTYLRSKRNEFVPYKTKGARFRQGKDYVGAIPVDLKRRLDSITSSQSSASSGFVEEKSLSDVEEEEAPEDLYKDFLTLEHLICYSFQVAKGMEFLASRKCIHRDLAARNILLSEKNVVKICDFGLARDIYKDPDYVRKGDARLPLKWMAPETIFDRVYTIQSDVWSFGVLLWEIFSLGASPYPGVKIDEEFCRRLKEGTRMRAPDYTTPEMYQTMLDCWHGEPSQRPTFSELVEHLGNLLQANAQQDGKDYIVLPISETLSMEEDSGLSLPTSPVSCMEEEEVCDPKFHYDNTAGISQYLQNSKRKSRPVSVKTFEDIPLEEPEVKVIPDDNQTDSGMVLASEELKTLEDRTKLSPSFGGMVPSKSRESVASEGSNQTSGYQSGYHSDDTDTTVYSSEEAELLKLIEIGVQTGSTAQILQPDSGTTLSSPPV
# experimentalDetails: cell-based or functional assay
Each record here notes measured % Inhibition of VEGF165-mediated pTyr Activity, n = 2.
Express it in %; write the number only.

Input: I am curious: what % Inhibition of VEGF165-mediated pTyr Activity, n = 2 value has been reported for anti-KDR monoclonal antibody 33D5 (antibody, V domains shown, Fully human mAb from XenoMouse (IgG2 or IgG4 strain); hybridoma supernatant) VH: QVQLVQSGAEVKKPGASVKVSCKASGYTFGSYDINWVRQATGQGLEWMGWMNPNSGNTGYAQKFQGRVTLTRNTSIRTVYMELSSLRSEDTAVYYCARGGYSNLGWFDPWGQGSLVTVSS VL: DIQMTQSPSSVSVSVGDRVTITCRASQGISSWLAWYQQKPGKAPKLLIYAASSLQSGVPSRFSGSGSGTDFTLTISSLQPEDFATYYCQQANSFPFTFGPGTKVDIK ?
Output: 72

Input: I am curious: what % Inhibition of VEGF165-mediated pTyr Activity, n = 2 value has been reported for anti-KDR monoclonal antibody 22B8 (antibody, V domains shown, Fully human mAb from XenoMouse (IgG2 or IgG4 strain); hybridoma supernatant) VH: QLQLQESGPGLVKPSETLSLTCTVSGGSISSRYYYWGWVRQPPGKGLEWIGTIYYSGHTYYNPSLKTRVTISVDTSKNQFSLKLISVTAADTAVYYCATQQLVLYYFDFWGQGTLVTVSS VL: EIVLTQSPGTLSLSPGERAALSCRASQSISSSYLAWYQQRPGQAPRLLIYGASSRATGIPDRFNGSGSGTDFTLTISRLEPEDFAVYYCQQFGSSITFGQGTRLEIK ?
Output: 65

Input: I am curious: what % Inhibition of VEGF165-mediated pTyr Activity, n = 2 value has been reported for anti-KDR monoclonal antibody 30A1 (antibody, V domains shown, Fully human mAb from XenoMouse (IgG2 or IgG4 strain); hybridoma supernatant) VH: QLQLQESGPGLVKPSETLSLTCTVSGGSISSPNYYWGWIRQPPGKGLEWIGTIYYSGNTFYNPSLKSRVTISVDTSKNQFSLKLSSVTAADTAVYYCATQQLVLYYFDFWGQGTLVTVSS VL: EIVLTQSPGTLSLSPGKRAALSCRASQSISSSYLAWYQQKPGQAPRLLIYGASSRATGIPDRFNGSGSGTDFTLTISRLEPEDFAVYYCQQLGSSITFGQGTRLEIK ?
Output: 59
